System: Enterococcus faecalis A20688
assay: MIC, broth micro dilution assay (NCCLS)
Assay type: cell-based
run_conditions: Mueller-Hinton medium, 35° C., 18 hours
experimental_endpoint: MIC (μg/mL) against Enterococcus faecalis A20688 (µg/mL)
// note: answer is a bare numeric in µg/mL

Q: // map COC(C)=C1NC(=O)C(C(C)O)NC(=O)c2csc(n2)-c2cc(O)c(-c3nc(C(=O)NC(CSCC(=O)O)C(N)=O)cs3)nc2-c2csc(n2)C2COC(=O)c3c4c5c(cccc5n3O)COC(=O)C(O)C(OC4)C(NC(=O)c3csc1n3)c1nc(cs1)C(=O)N2 (stereo not shown) [Example 95] to recorded MIC (μg/mL) against Enterococcus faecalis A20688 (system: Enterococcus faecalis A20688)
Result: 4.0

Q: What would you report for COC[C@@H]1CCCN1CC(NC(=O)c1csc(-c2nc3c(cc2O)-c2nc(cs2)C(=O)NC(C(C)O)C(=O)N/C(=C(\C)OC)c2nc(cs2)C(=O)NC2c4nc(cs4)C(=O)NC(COC(=O)c4c5c6c(cccc6n4O)COC(=O)C(O[C@H]4C[C@](C)(O)[C@H](N(C)C)[C@H](C)O4)C2OC5)c2nc-3cs2)n1)C(N)=O (stereo partly shown) [Example 63] ?
Result: 0.25

Q: Do the same for COC(C)=C1NC(=O)C(C(C)O)NC(=O)c2csc(n2)-c2cc(O)c(-c3nc(C(=O)NC(CN(C)CCc4ccccn4)C(N)=O)cs3)nc2-c2csc(n2)C2COC(=O)c3c4c5c(cccc5n3O)COC(=O)C(O)C(OC4)C(NC(=O)c3csc1n3)c1nc(cs1)C(=O)N2 (stereo not shown) [Example 93] please
Result: 0.06

Q: Also CO/C(C)=C1/NC(=O)C(C(C)O)NC(=O)c2csc(n2)-c2cc(O)c(-c3nc(C(=O)NC(CN4C[C@H](C)NC[C@@H]4C)C(N)=O)cs3)nc2-c2csc(n2)C2COC(=O)c3c4c5c(cccc5n3O)COC(=O)C(O[C@H]3C[C@](C)(O)[C@H](N(C)C)[C@H](C)O3)C(OC4)C(NC(=O)c3csc1n3)c1nc(cs1)C(=O)N2 (stereo partly shown) [Example 59] , if possible.
Result: 2.0

Q: Another molecule: COC(C)=C1NC(=O)C(C(C)O)NC(=O)c2csc(n2)-c2cc(O)c(-c3nc(C(=O)NC(CN(C)CCC(=O)Nc4ccncc4)C(N)=O)cs3)nc2-c2csc(n2)C2COC(=O)c3c4c5c(cccc5n3O)COC(=O)C(OC3CC(C)(O)C(N(C)C)C(C)O3)C(OC4)C(NC(=O)c3csc1n3)c1nc(cs1)C(=O)N2 (stereo not shown) [Example 82]
Result: 0.5

Q: // same read-out, input: COCC1CCCN1CC(NC(=O)c1csc(-c2nc3c(cc2O)-c2nc(cs2)C(=O)NC(C(C)O)C(=O)NC(=C(C)OC)c2nc(cs2)C(=O)NC2c4nc(cs4)C(=O)NC(COC(=O)c4c5c6c(cccc6n4O)COC(=O)C(O)C2OC5)c2nc-3cs2)n1)C(N)=O (stereo not shown) [Example 98]
Result: 0.5

Q: Next record, please: CNC(=O)On1c2c3c4c(cccc41)COC(=O)C(OC1CC(C)(O)C(N(C)C)C(C)O1)C(OC3)C1NC(=O)c3csc(n3)C(=C(C)OC)NC(=O)C(C(C)O)NC(=O)c3csc(n3)-c3cc(O)c(-c4nc(C(=O)NC(CN(C)C(=O)NC)C(N)=O)cs4)nc3-c3csc(n3)C(COC2=O)NC(=O)c2csc1n2 (stereo not shown) [Example 108]
Result: 0.5
